Collected growth values appear next to each entry.
Tested on: K-562 leukemia
procedureSummary: NCI-60 one-dose screen, 48 h (100 = growth as untreated, 0 = no growth, -100 = all killed)
runConditions: 10 µM unless noted
The panel holds about 83,000 compounds, 20% with a hit somewhere; the sample as a whole holds those more often. The source made the active and inactive calls. Rule for the calls: active = growth percent below 10; inactive = the rest.

Below: 4 molecules and their reported growth.
COc1cc2c(c(OC)c1OC)C(=O)CC(c1cccc(NC(=O)c3cc(NC(=O)[C@H](C)N)ccc3Cl)c1)O2 (stereo not given in full); 9.72% (active)
O=c1c2ccccc2nc(-c2ccccc2)n1/N=C/c1ccc2ccccc2c1; 26.7% (inactive)
C=CC(=O)Nc1ccc(C)c(Oc2ccc(Cl)cc2)c1; 53.2% (inactive)
COc1ccc(C2=NN(C(C)=O)C(c3ccc(OCc4ccc(Cl)cc4)c(OC)c3)C2)cc1OC (stereo not given); 31% (inactive)

Kindly consider the entry below.
Incoming: Give the reported growth for this molecule. O=C(c1ccccc1)C(c1c[nH]c2ccccc12)c1c[nH]c2ccccc12
Outgoing: 10.3% (inactive)
